- System: HSV-2
- Test description: Virus yield reduction assay (plaque titration) HSV-2
- Assay type: cell-based, Herpes simplex virus type 2 (clinical isolate) in Vero cells
- Study conditions: Vero cells, MOI 0.1, 48 h, 100 µM (50 µM for 5f and 5k)
Readout: antiviral activity against HSV-2 (in words)

>>> reading("N=C(NC(=O)N1CCN(c2ccccc2)CC1)Nc1ccc(Cl)cc1")
"very strong activity"
>>> reading("N=C(NCc1ccccc1)NC(=O)N1CCN(c2ccc(Cl)cc2)CC1")
"very strong activity"
>>> reading("N=C(NC(=O)N1CCN(C23CC4CC(CC(C4)C2)C3)CC1)Nc1ccc(Cl)cc1")
"very strong activity"

----------
- Test description: Cytotoxicity assay (MTT) in Vero cells
- Type: cell-based
- Study conditions: African green monkey, Vero cells (African green monkey kidney cells), compound concentration that produces 50% of cytotoxicity
Give measured log10(CC50 at 48 h) for each item. Keep answers brief.
Hi team, quick reminder: these entries are log10 of CC50 at 48 h (µM).

(Q) # get_value(readout='log10(CC50 at 48 h)', item= CC(NC(=O)NC(=N)Nc1ccc(Cl)cc1)c1ccccc1 (centres unmarked) [Compound 5b] )
(A) 2.29

(Q) Subsequent entry: N=C(NCc1ccccc1)NC(=O)N1CCN(c2ccccc2)CC1 [Compound 5g]
(A) 2.39

(Q) Subsequent entry: N=C(NC(=O)N1CCN(C23CC4CC(CC(C4)C2)C3)CC1)Nc1ccc(Cl)cc1 [Compound 5k]
(A) 1.94

(Q) Subsequent entry: N=C(NC(=O)N1CCNC(c2ccccc2)C1)Nc1ccc(Cl)cc1 (centres unmarked) [Compound 5f]
(A) 1.99

(Q) Subsequent entry: Cc1ccc(CNC(=O)NC(=N)Nc2ccc(Cl)cc2)cc1 [Compound 5c]
(A) 2.26

(Q) Subsequent entry: N=C(NC(=O)N1CCOCC1)Nc1ccc(Cl)cc1 [Compound 5d]
(A) 3.19

(Q) Subsequent entry: N=C(NCc1ccccc1)NC(=O)N1CCN(c2ccc(Cl)cc2)CC1 [Compound 5j]
(A) 2.25

(Q) Subsequent entry: N=C(NC(=O)NCCNc1ccccc1)Nc1ccc(Cl)cc1 [Compound 5e]
(A) 2.15

(Q) Subsequent entry: N=C(NCc1ccccc1)NC(=O)N1CCN(c2ccc(F)cc2)CC1 [Compound 5h]
(A) 2.59

(Q) Subsequent entry: N=C(NC(=O)NCc1ccc(Cl)cc1)Nc1ccc(Cl)cc1 [Compound 5a]
(A) 2.23

(Q) Subsequent entry: N=C(NC(=O)N1CCN(c2ccccc2)CC1)Nc1ccc(Cl)cc1 [Compound 5i]
(A) 2.17

All values here come from paper PMC8398393.
